Measured On: S. pyogenes SKKanGAS, kanamycin survival, BacTiterGlo, 6 h
Experiment Notes: S. pyogenes SKKanGAS kanamycin growth inhibitors – SKKanGAS strain, luminescence, dose confirmation, streptokinase promoter inhibitor project, dose response (AID 1902);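 note: lower survival reflects blocked streptokinase promoter driving kanamycin resistance gene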
Active and inactive are the calls of the source.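 Rule for the calls: active = EC50 no more than a set limit of log units above the highest dose; inactive = the rest.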
Field 'call' accepts true (1) for active, false (0) for inactive

Worked cases, answers included:
- Compound: "COc1ccc(Br)cc1/C=C/C(=O)NC(=S)Nc1ccc(Cl)c(C(=O)O)c1"
  Discrete Label: "true (1)"
- Compound: "COc1ccc(N2CC(C(=O)Nc3nnc(SCc4cccnc4)s3)CC2=O)cc1 (stereo not given)"
  Discrete Label: "false (0)"
- Compound: "CC1(C)S[C@@H]2[C@H](NC(=O)COc3ccccc3)C(=O)N2C1C(=O)OCc1ccccc1 (stereo not given in full)"
  Discrete Label: "true (1)"
- Compound: "O=[N+]([O-])c1ccc(Cl)cc1Sc1nc2ccccc2o1"
  Discrete Label: "true (1)"
- Compound: "O=[N+]([O-])/C=C/c1c(OCc2ccccc2)ccc2ccccc12"
  Discrete Label: "true (1)"

// next entry
Exercise: Given `CC(C)c1ccc2nc3sc(C(=O)N4CCc5ccccc5C4)c(N)c3cc2c1` , state the outcome it received in this test.
Solution: true (1)

====

Measured On: S. pyogenes SKKanGAS, kanamycin survival, BacTiterGlo, 6 h
Experiment Notes: S. pyogenes SKKanGAS kanamycin growth inhibitors – SKKanGAS strain, luminescence, dose confirmation, streptokinase promoter inhibitor project, dose response (AID 1902);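 note: lower survival reflects blocked streptokinase promoter driving kanamycin resistance gene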
pEC50 values by entry
Interpret pEC50 as the negative base-10 log of the concentration measured in mol/L.

- Molecule: "C[C@H]1COc2c(N3CCN(C)CC3)c(F)cc3c(=O)c(C(=O)O)cn1c23"
  Measured On: "S. pyogenes SKKanGAS, kanamycin survival, BacTiterGlo, 6 h"
  Numeric Result: 5.81
- Molecule: "COc1ccc(Cn2c(C3CCCCC3)nc3c(c(=O)c4ccccc4n3C)c2=O)cc1"
  Measured On: "S. pyogenes SKKanGAS, kanamycin survival, BacTiterGlo, 6 h"
  Numeric Result: 5.49
- Molecule: "OC(CNCC1CCCO1)Cn1c2ccc(Br)cc2c2cc(Br)ccc21 (stereo not given)"
  Measured On: "S. pyogenes SKKanGAS, kanamycin survival, BacTiterGlo, 6 h"
  Numeric Result: 5.46
- Molecule: "Cc1nn(Cc2c(Cl)cccc2Cl)c(C)c1NC(=O)c1cn(-c2ccccc2)nc1-c1ccccc1"
  Measured On: "S. pyogenes SKKanGAS, kanamycin survival, BacTiterGlo, 6 h"
  Numeric Result: 5.03

Let us move to another entry and its pEC50.
Exercise: For the molecule `CC(C)(C)c1cc(NCc2ccccn2)n2ncc(-c3ccc(Cl)cc3)c2n1` , what pEC50 is on record?
Solution: 5.87

====

Measured On: S. pyogenes SKKanGAS, kanamycin survival, BacTiterGlo, 6 h
Experiment Notes: S. pyogenes SKKanGAS kanamycin growth inhibitors – SKKanGAS strain, luminescence, dose confirmation, streptokinase promoter inhibitor project, dose response (AID 1902);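 note: lower survival reflects blocked streptokinase promoter driving kanamycin resistance gene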
Calls of active or inactive are those of the source.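 The calls were made as follows: active = EC50 no more than a set limit of log units above the highest dose; inactive = the rest.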
Field 'call' accepts active, inactive

- Smiles Code: "CCCCCn1c(=O)c(C(=O)Nc2cnccn2)c(O)c2ccccc21"
  Discrete Label: "active"
- Smiles Code: "O=Nc1c(-c2c(O)[nH]c3cc(Br)ccc23)[nH]c2ccccc12"
  Discrete Label: "active"
- Smiles Code: "Oc1c(Cl)cc(Cl)cc1C=Nc1cc(C(F)(F)F)ccc1N1CCc2ccccc2C1"
  Discrete Label: "active"
- Smiles Code: "C[C@]12CC[C@@H]3c4ccc(OC(=O)c5ccccc5)cc4CC[C@H]3[C@@H]1CC[C@@H]2O"
  Discrete Label: "active"
- Smiles Code: "Cc1ccc(-c2cc(C(=O)Nc3ccc(S(=O)(=O)Nc4cc(C)on4)cc3)c3ccccc3n2)c(C)c1"
  Discrete Label: "active"

Exercise: Given `COc1ccc(N2CCN(C(=O)c3cc(C)oc3C)CC2)cc1` , state the outcome it received in this test.
Solution: inactive

Exercise: Given `N=C1/C(=C/c2cccs2)C(=O)N=C2SN=C(SCc3ccccc3)N12` , state the outcome it received in this test.
Solution: active

Exercise: Given `Cc1sc2ncnc(N3CCC(C(=O)Nc4ccc(Cl)cc4Cl)CC3)c2c1C` , state the outcome it received in this test.
Solution: active

Exercise: Given `COCc1cc(=O)[nH]c(Nc2nc3ccccc3o2)n1` , state the outcome it received in this test.
Solution: active

Exercise: Given `Cc1cc(N/N=C/c2cccc(Cl)c2)nc(-n2nc(C)cc2C)n1` , state the outcome it received in this test.
Solution: active
